# Tested on: LOX IMVI melanoma
# assaySummary: NCI-60 one-dose screen, 48 h
# assayConditions: 10 µM unless noted
Compounds without any hit were thinned out: in the full panel of roughly 83,000, 20% have a hit. Calls of active or inactive are those of the source. How the source made its calls: active means growth percent below 10; inactive means the rest.
Choose one outcome from this list and give only that: active, inactive

What was the test verdict on `NS(=O)(=O)c1ccc(CCN2C(=O)/C(=C\c3ccccc3)C=C2c2ccc(Cl)cc2)cc1` ?
inactive

What was the test verdict on `C#C[C@]1(O)CC[C@H]2[C@@H]3CC=C4c5nc(Nc6ccccn6)sc5CC[C@]4(C)[C@H]3CC[C@@]21C` ?
active

What was the test verdict on `O=C1COCCN1c1ccc(NCc2cn(Cc3ccc(F)cc3)c3ccccc23)cc1` ?
inactive

What was the test verdict on `OC(c1ccc(Cl)cc1)(c1ccc(Cl)cc1)C(O)(c1ccc(Cl)cc1)c1ccc(Cl)cc1` ?
inactive

What was the test verdict on `O=C(O)c1cn(C2CC2)c2cc(N3CCN(Cc4c(O)ccc5ccccc45)CC3)c(F)cc2c1=O` ?
inactive

What was the test verdict on `C#C[C@]1(O)CC[C@H]2[C@@H]3CC=C4c5nc(Nc6ccc(OC)cc6OC)sc5CC[C@]4(C)[C@H]3CC[C@@]21C` ?
active

What was the test verdict on COc1ccc2c(c1)C(C)Cc1c(Cl)nc(C)nc1N2C (centres undefined) ?
inactive

What was the test verdict on `COc1ccc(/C=C/C=C\C(=O)c2ccc(-n3ccnc3)cc2)cc1` ?
inactive

What was the test verdict on `c1cc2ccc1CNCCN1CCNCc3ccc(cc3)Oc3ccc(cc3)CNCCN(CCNCc3ccc(cc3)O2)CCNCc2ccc(cc2)Oc2ccc(cc2)CNCC1` ?
active

What was the test verdict on `CCN(CC)c1cc(N)c(Cc2c(N)cc(N(CC)CC)cc2Cl)c(Cl)c1` ?
inactive

What was the test verdict on `CCOc1cc(NC(=O)c2ccccc2)c(OCC)cc1N` ?
inactive

What was the test verdict on `COc1ccc(NCc2cn(-c3ccc(C(=O)O)cc3)nc2-c2ccc(C(=O)O)cc2)cc1C(F)(F)F` ?
inactive

What was the test verdict on O=C1CC(c2ccc3c(c2)OCO3)Nc2ccccc21 (centres undefined) ?
inactive

What was the test verdict on `C#C[C@]1(O)CC[C@H]2[C@@H]3CC=C4c5nc(N)sc5CC[C@]4(C)[C@H]3CC[C@@]21C` ?
inactive

What was the test verdict on `Cc1ccc2c(n1)C(=O)C(Cl)=C(Nc1ccc(N3CCN(C)CC3)cc1)C2=O` ?
active

What was the test verdict on `CC(C)c1ccc(/C=N/N=C(N)N)cc1` ?
inactive

What was the test verdict on COc1ccc(C2CC(c3cc(OC)c(OC)c(OC)c3)=NN2C(C)=O)cc1OCC(=O)Nc1nc2ccc(C(F)(F)F)cc2s1 (centres undefined) ?
inactive

What was the test verdict on `Nc1nc(Nc2ccccc2)c2ncn(Cc3ccc4c(c3)OCO4)c2n1` ?
inactive

What was the test verdict on `CC(=O)CC(=O)SC1=NCCS1` ?
inactive
